Below, each of the molecules is paired with its reported GI50 value.
Test system: BT-549
Assay: NCI tumour cell line growth inhibition, 48 h
Calls of active or inactive are those of the source. No stated cut-off is given here; in the data, active = GI50 up to about 1.1 µM and inactive = higher.

Answered examples (2):
Nc1ccc2c(c1)S(=O)(=O)c1cc(N)ccc1-2
> 100 µM (inactive)
Cc1ccccc1/N=N/c1c(O)ccc2ccccc12
> 100 µM (inactive)

Prompt: // lookup GI50 | system=BT-549 | key= COc1cc(Br)cc2cc(-c3cn4c(n3)sc3ccccc34)c(=O)oc12
Response: 24.3 µM (inactive)

Prompt: // lookup GI50 | system=BT-549 | key= Cc1cc(=O)oc2c(CN(CCCl)CCCl)c(O)ccc12
Response: 21.1 µM (inactive)

* * *

System: CCRF-CEM
Experiment: NCI tumour cell line growth inhibition, 48 h
Activity calls are given as the source filed them. Rule as the data show it: active = GI50 up to about 1.1 µM and inactive = higher.
Use one of these outcomes when replying: true = active, false = inactive

Example entries and their recorded answers appear below.
COc1cccc(-c2nc(-c3cnccn3)n(C/C=C/c3ccccc3)n2)c1
false
O=C1C(Br)=C(c2ccccc2)C(c2ccccc2)=C1c1ccccc1
true
N#Cc1c(N)c2c(c(-c3ccccc3)c1-c1ccccc1)C(=O)N(NC(=S)Nc1ccccc1)C2=O
false

Prompt: So what was the verdict on O=C(NCCNCCNCCNC(=O)c1cc(-c2ccccc2)nc2ccccc12)c1cc(-c2ccccc2)nc2ccccc12 in this test?
Response: false

* * *

Below, each of the compounds is paired with its reported GI50 value.
Tested on: HOP-62
Assay: NCI tumour cell line growth inhibition, 48 h
Calls of active or inactive are those of the source. Cut-off read from the data, not from the text of the source: active = GI50 up to about 1.1 µM and inactive = higher.

O=C(/C=C/c1ccccc1)CSc1nc[nH]n1
> 100 µM (inactive)
O=CN/C=C/c1ccc(O)c(O)c1
> 100 µM (inactive)
Cc1ccc(S(=O)(=O)NC(=O)NNc2ccc(F)cc2)cc1
> 100 µM (inactive)
COC1=CC2=NCCc3n[nH]c(c32)C1=O
31.7 µM (inactive)
Cc1ccccc1/N=N/c1c(O)ccc2ccccc12
48.1 µM (inactive)
CC(=O)OC1CC2C(=O)C(=O)C1(C)C2(C)C (stereo unspecified)
> 100 µM (inactive)

Lab note: next compound to report on.
Prompt: Query (compound): O=C(c1ccccc1)c1ccc2cccc(O)c2n1 ; field requested: GI50
Response: 52.4 µM (inactive)

* * *

Tested on: 786-0
Experiment: NCI tumour cell line growth inhibition, 48 h
Calls of active or inactive are those of the source. No stated cut-off is given here; in the data, active = GI50 up to about 1.1 µM and inactive = higher.
Use one of these outcomes when replying: active, inactive

Example entries and their recorded answers appear below.
CCN(CC)CCCNc1ccc2nc(C)n3c4ccc(O)cc4c(=O)c1c23
inactive
c1cncc(CSc2ncnc3[nH]cnc23)c1
inactive
O=C(NCCNCCNCCNC(=O)c1cc(-c2ccccc2)nc2ccccc12)c1cc(-c2ccccc2)nc2ccccc12
inactive
CN1C(=O)C(C#N)C2C[C@@]1(C)Oc1ccccc12 (stereo partly specified)
inactive
[O-][n+]1onc2c1-c1nonc1CC2
inactive
COC(=O)C(C(=O)C(=O)Nc1ccc([N+](=O)[O-])cc1)c1nc2cc(C)c(C)cc2nc1O (stereo unspecified)
inactive
CC(=O)Nc1ccc(S(=O)(=O)N/N=C/c2cc(I)cc([N+](=O)[O-])c2O)cc1
inactive
COc1ccc(-c2cc(=O)c3c(O)c(OC)c(OC)c(OC)c3o2)cc1
inactive
CC(C)c1cccc(C(C)C)c1NC(=O)/C(CC(=O)CC(c1ccccc1)c1c(O)c2ccccc2oc1=O)=N/O (stereo unspecified)
inactive
CCOC(=O)NC(=O)c1cn(CCCOC(=O)CCCCCCCCCCC(=O)OCCCn2cc(C(=O)NC(=O)OCC)c(=O)[nH]c2=O)c(=O)[nH]c1=O
inactive

Prompt: So what was the verdict on O=S1(=O)OCCOS(=O)(=O)C1Cc1cccc2ccccc12 in this test?
Response: inactive

Prompt: So what was the verdict on Cc1c(C)c(C)c(-n2[nH]c(=O)n(C)c2=O)c(C)c1C in this test?
Response: inactive

Prompt: So what was the verdict on c1ccncc1 in this test?
Response: inactive

Prompt: So what was the verdict on CCN(CC)C(=S)N/N=C(/c1ccccc1)c1ccccn1 in this test?
Response: active

Prompt: So what was the verdict on O=C(/C=C/c1ccccc1)CSc1nc[nH]n1 in this test?
Response: inactive

Prompt: So what was the verdict on COc1ccc(Nc2nc(N)c(C(=O)c3ccccc3)s2)cc1 in this test?
Response: active

Prompt: So what was the verdict on CC(C)OCN1COCN/C1=N/C#N in this test?
Response: inactive

* * *

Tested on: A498
Experiment: NCI tumour cell line growth inhibition, 48 h
The source made the active and inactive calls. Cut-off read from the data, not from the text of the source: active = GI50 up to about 1.1 µM and inactive = higher.
Use one of these outcomes when replying: active, inactive

Example entries and their recorded answers appear below.
COC(=O)C1C(C(=O)OC)C2(OC(c3ccc(Cl)cc3)=CC2=O)C12OC(c1ccc(Cl)cc1)=CC2=O (centres undefined)
inactive
CC(C)C(C)C(O)C(O)C(C)C1CCC2C3COC(=O)C4CC(O)C(O)CC4(C)C3CCC12C (centres undefined)
inactive
Nc1n[nH]c2c1Cc1c(n(Cc3ccc(Cl)cc3)c3ccccc13)C(=O)N2
inactive
COc1ccc(C2=CC(c3ccc4c(c3)OCO4)c3c(c4ccccc4oc3=O)O2)cc1OC (centres undefined)
active
CSCCCNC(=O)c1csc(-c2csc(CCNC(=O)CNC(=O)CNC(=O)CNC(=O)OC(C)(C)C)n2)n1
inactive
Cc1[nH]c2ccccc2c1-c1cc(-c2cc(-c3c(C)[nH]c4ccccc34)nc(N)n2)nc(N)n1
inactive

Prompt: So what was the verdict on C#CCNC(CCCNC(=N)N)C(=O)O (centres undefined) in this test?
Response: inactive

Prompt: So what was the verdict on Cc1c(C#N)c(N)[nH]c(=S)c1C#N in this test?
Response: inactive

Prompt: So what was the verdict on COc1ccc(C(=O)c2ccc(-n3c4ccccc4c4ccc5c(c43)C(=O)C=CC5=O)cc2)cc1 in this test?
Response: inactive

* * *

Test system: CCRF-CEM
Assay: NCI tumour cell line growth inhibition, 48 h
Activity calls are given as the source filed them. Cut-off read from the data, not from the text of the source: active = GI50 up to about 1.1 µM and inactive = higher.
Use one of these outcomes when replying: active, inactive

Example entries and their recorded answers appear below.
CN(C)CCNc1ccc2ncn3c4ccc(O)cc4c(=O)c1c23
active
O=CN/C=C/c1ccc(O)c(O)c1
inactive
CC(C)CC1C(=O)NCCC(NC(=O)C(Cc2ccc(OC(C)(C)C)cc2)NC(=O)OC(C)(C)C)C(=O)NC(Cc2ccccc2)C(=O)NC(Cc2ccccc2)NC1=O (stereo not given)
inactive
CCOC(=O)C(Cl)(NC(=O)NC(Cl)(C(=O)OCC)C(F)(F)F)C(F)(F)F (stereo not given)
inactive

Prompt: So what was the verdict on O=C(Nc1nnc(S)[nH]1)C(=O)C(C(=O)c1ccc2ccccc2c1)C1OC(=O)c2ccccc21 (stereo not given) in this test?
Response: inactive

* * *

Test system: SF-539
Test: NCI tumour cell line growth inhibition, 48 h
Calls of active or inactive are those of the source. Rule as the data show it: active = GI50 up to about 1.1 µM and inactive = higher.
readout type: GI50

Answered examples (4):
OC[C@H]1O[C@@H](Oc2cc(O)cc(/C=C/c3ccc(O)cc3)c2)[C@H](O)[C@@H](O)[C@@H]1O
> 100 µM (inactive)
CO[C@@H]1C=C[C@@]23c4cc5c(cc4C(O)N(CC2O)C3C1)OCO5 (stereo not given in full)
9.23 µM (inactive)
CCc1cccc(C(C)C)c1NC(=O)/C(=N\NC(N)=O)C(C(=O)OC)c1cnc2ccccc2n1 (stereo not given)
52.7 µM (inactive)
CCCCC(CC)C(=O)Oc1ccc(C(=O)c2ccccc2)c(O)c1 (stereo not given)
5.46 µM (inactive)

Lab note: next molecule to report on.
Prompt: Query (molecule): COc1ccc(C(SC2C(O)C(CO)OC2n2ccc(=O)[nH]c2=O)(c2ccccc2)c2ccc(OC)cc2)cc1 (stereo not given) ; field requested: GI50
Response: 22 µM (inactive)

* * *

Here's what we have: GI50 numbers for HCT-15.

Answered examples (5):
CS(=O)(=O)OCCN1CCN(C(=O)c2cccc3c(Nc4ccc(S(N)(=O)=O)cc4)c4ccccc4nc23)CC1
> 42.9 µM
COc1cccc(NC(=O)CC(=O)NN)c1
> 100 µM
Cc1ccc(S(=O)(=O)NC(=O)NNc2ccc(F)cc2)cc1
> 100 µM
N#C/C=C(/NC(=O)Nc1ccccc1)N1CCCC1
> 56.2 µM
C1CSCCSCCS1
> 100 µM

Prompt: Query (compound): OC[C@H]1O[C@@H](Oc2cc(O)cc(/C=C/c3ccc(O)cc3)c2)[C@H](O)[C@@H](O)[C@@H]1O ; field requested: GI50
Response: > 100 µM

* * *

System: SNB-75
Assay: NCI tumour cell line growth inhibition, 48 h
The source made the active and inactive calls. No stated cut-off is given here; in the data, active = GI50 up to about 1.1 µM and inactive = higher.
readout type: GI50

Answered examples (5):
CN1CCN(/C(N)=C(\C#N)C(=O)Nc2ccc(Cl)cc2)CC1
> 100 µM (inactive)
CO[C@@H]1C=C[C@@]23c4cc5c(cc4C(O)N(CC2O)C3C1)OCO5 (stereo not given in full)
2.82 µM (inactive)
CC1=C(SCCO)C(=O)c2ccccc2C1=O
16.5 µM (inactive)
O=[N+]([O-])c1cccc(C(O)/C(=N/Nc2ccccc2)C2Nc3ccc([N+](=O)[O-])cc3N=C2O)c1 (stereo not given)
74 µM (inactive)
c1ccncc1
> 100 µM (inactive)

Prompt: // lookup GI50 | system=SNB-75 | key= O=C1OCOC2(CCCC2)C1c1ccccc1 (stereo not given)
Response: > 100 µM (inactive)

Prompt: // lookup GI50 | system=SNB-75 | key= Nc1c(-c2cn(Cc3ccccc3)c3ccccc23)[n+]([O-])c2ccccc2[n+]1[O-]
Response: 16.4 µM (inactive)

Prompt: // lookup GI50 | system=SNB-75 | key= COC(=O)C1=C(C(=O)OC)SC(=C2SC3=C(SC(=C4SCCS4)S3)S2)S1
Response: 0.0302 µM (active)

Prompt: // lookup GI50 | system=SNB-75 | key= CCOC(=O)c1sc2[n+](c1C)C(=O)/C(=C/c1ccccc1Cl)S2
Response: 0.425 µM (active)

Prompt: // lookup GI50 | system=SNB-75 | key= C/C=C/[C@@H]1O[C@H](CC#C[Si](C)(C)C)[C@@]2(C=O)C(C)=CC[C@H](C(C)C)[C@@H]12
Response: 21.6 µM (inactive)
